B1: Pre-mRNA-processing factor 40 homolog B, residues 274 to 332; numbered along this chain, Q6NWY9 (parent)
chain: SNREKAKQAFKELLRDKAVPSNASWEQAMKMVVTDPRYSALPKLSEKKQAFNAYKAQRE

- Variants of: B1
- Method Description: abundance fitness (aPCA) (normalised: wild type 0, dead -1); higher = more abundant; growth selection in yeast, the domain comes from the species named
- Experimental Parameters: Homo sapiens
Measurement Kind: abundance fitness

• A9C = -0.094
• S45P = -0.369
• D35T = -0.714
• E12K = -0.469
• P42R = -0.326
• R3F = -0.27
• M29G = -0.237
• F10V = -0.511
• S45H = -0.016
• W25T = -0.149
• Q49D = 0.021
